- Tested on: CCRF-CEM leukemia
- method_notes: NCI-60 one-dose screen, 48 h (100 = growth as untreated, 0 = no growth, -100 = all killed)
- details: 10 µM unless noted
Compounds without any hit were thinned out: in the full panel of roughly 83,000, 20% have a hit.
Please map values of growth to classes as shown: low = under 30%, moderate = from 30% up to 60%, high = 60% and over

Here's what some known entries look like.
>>> print(df.to_string())
                                   compound  category
0  O=C1N=c2ccccc2=C1c1sc(=Nc2ccccc2)n(Nc2ccccc2)c1O      high
1   Cc1ccc(F)cc1NC(=O)c1cc(Cl)ccc1Nc1ccccc1  moderate
2  COc1ccc(-c2nc(-c3ccccc3)c(-c3ccccc3)[nH]2)cc1OC1CCCCC1      high

# input Tag the class for Cn1nc(C(C)(C)C)cc1NC(=O)Cc1ccc(/C=C2\C(=O)Nc3ccccc32)cc1
# output moderate

# input Textbook exercise: identify the category of the compound given here, O=C(c1nc2ccccc2[nH]1)C1C(c2ccc([N+](=O)[O-])cc2)C2CC3CCCCC3N2[C@@]12C(=O)Nc1cc(Cl)ccc12 (stereo not given in full) , according to its measured value.
# output low

# input Tag the class for Nc1nc(-c2cnccn2)nn1-c1nc2ccccc2s1
# output high

---

- Test system: MDA-MB-435 melanoma
- method_notes: NCI-60 one-dose screen, 48 h
- details: 10 µM unless noted
About 83,000 compounds went through this panel and 20% of them were active in at least one assay; those are over-represented in the sample as a whole. Active and inactive are the calls of the source. Rule for the calls: active = growth percent below 10; inactive = the rest.
I would appreciate it if you answered using one of these outcomes: active, inactive

In [3]: df
Out[3]:
                                   molecule  category
0  O=C1c2ccc3c4c(ccc(c24)C(=O)N1CCCCO)C(=O)N(CCCCO)C3=O    active
1   COc1ccc(-c2cn[nH]c2-c2ccc(OC)c(O)c2)cc1    active
2  CC1=CCC(OC(=O)C(C)(C)CCC(O)(C(=O)OC2(C(C)C)CCC3(C)OC3C2)C(C)C)(C(C)C)CC1 (stereo not given)    active
3  COc1cc(C2CC(c3ccc(Nc4nc(NCCO)nc(N5CCOCC5)n4)cc3)=NN2c2cc(Cl)cc(Cl)c2)cc(OC)c1OC (stereo not given)  inactive
4  CN1C(=O)N(C)C2Nn3c(s/c(=C\c4ccc(Cl)cc4Cl)c3=O)=NC21 (stereo not given)    active
5  COc1cc(/C=C2\CCC/C(=C\c3cc(CN4CCCCC4)c(O)c(OC)c3)C2=O)cc(CN2CCCCC2)c1O  inactive
6  CCOC(=O)c1c2c(c(C)n1Cc1ccc(OC)cc1)-c1oncc1CC2  inactive
7  CC(C)CCNCC(O)Cn1c2ccccc2c2ccccc21 (stereo not given)    active
8       Clc1ncccc1Nc1ccc2nnc(-c3ccncc3)n2n1  inactive
9  CN1C(=O)N(C)C2C1NN=c1s/c(=C\c3ccc([N+](=O)[O-])cc3)c(=O)n12 (stereo not given)    active

Now consider a different molecule.
# input Record lookup: outcome of this test for COc1cc(/C=C2\Oc3cc(OCCCN4CCCC4)ccc3C2=O)cc(OC)c1 ?
# output inactive

---

- System: OVCAR-3 ovarian
- method_notes: NCI-60 one-dose screen, 48 h (100 = growth as untreated, 0 = no growth, -100 = all killed)
- details: 10 µM unless noted
About 83,000 compounds went through this panel and 20% of them were active in at least one assay; those are over-represented in the sample as a whole.
endpoint_name: growth (%)
Use % as the unit, but write only the number.

These solved cases illustrate the format of a correct answer.
>>> print(df.to_string())
                                   compound  data_value
0  CCCCCCC(O)(c1ccc(F)cc1)C(CN1CCOCC1)c1ccccc1 (stereo unspecified)        2.28
1  COc1cc(C2CC(c3ccc(Nc4nc(NCCO)nc(N5CCOCC5)n4)cc3)=NN2c2cc(Cl)cc(Cl)c2)cc(OC)c1OC (stereo unspecified)        56.9
2  CCN1C(=O)N(c2ccccc2)C2NN=c3s/c(=C4\C(=O)N(C(C)C)c5ccccc54)c(=O)n3C21 (stereo unspecified)        1.06
3  CCCCC1CCc2cccc3c(SCC(=O)N(C)c4ccc(Cl)cc4)cc[n+]1c23 (stereo unspecified)         108

# input Name the recorded growth for O=C(Nc1ccc(I)cc1F)c1cc(F)ccc1O .
# output 6.68

# input Can you share its growth? I mean this compound: O=C(CN1C=NC2C(N3CCOCC3)=NC=NC21)c1ccc(Br)cc1 (stereo unspecified)
# output 108

# input Report growth for O=C(NCc1ccco1)C1CN(c2ccc(Cl)cc2)N(c2ccc(Cl)cc2)C1=O (stereo unspecified) please.
# output 3.64

# input For the compound shown here, CCOC(=O)c1cc2c(n1Cc1cc(OC)cc(OC)c1)-c1oncc1CCC2 , give the reported growth.
# output -35.7

# input What does the data say about its growth? Entry: O=c1oc2ccc(I)cc2c(=O)n1-c1ccc(F)cc1F
# output 2.05

# input Record request: growth value, item NC1C(N)C(N)C1N (stereo unspecified)
# output 111

# input Which growth value belongs to O=NN(Cc1cccnc1)C(=O)NC1CCCCC1 ?
# output 114
